system: human recombinant ALDH1A1 (Homo sapiens)
Sequence (P00352 whole entry): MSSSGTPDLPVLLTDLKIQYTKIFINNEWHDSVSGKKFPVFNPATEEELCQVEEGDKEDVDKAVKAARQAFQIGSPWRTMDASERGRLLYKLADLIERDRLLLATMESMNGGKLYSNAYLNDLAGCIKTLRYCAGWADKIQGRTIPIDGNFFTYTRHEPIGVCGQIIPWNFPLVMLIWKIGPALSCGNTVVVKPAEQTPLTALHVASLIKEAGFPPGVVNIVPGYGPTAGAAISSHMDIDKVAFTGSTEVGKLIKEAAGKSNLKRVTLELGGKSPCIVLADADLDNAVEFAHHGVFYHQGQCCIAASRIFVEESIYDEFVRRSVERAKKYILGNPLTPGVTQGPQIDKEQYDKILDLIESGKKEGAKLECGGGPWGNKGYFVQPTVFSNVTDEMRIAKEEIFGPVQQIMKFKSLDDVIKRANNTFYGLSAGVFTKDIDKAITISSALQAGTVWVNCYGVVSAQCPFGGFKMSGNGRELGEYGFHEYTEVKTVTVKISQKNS
assay_summary: ALDH activity colorimetric assay (Biovision), ALDH1A1
condition_parameters: Table 1, class symbols
pIC50: −log10 of the molar value.
metric_name: pIC50

Past entries and their recorded results:
CS(=O)(=O)N1CCN(C(=O)c2cnc3cc(F)ccc3c2-c2ccc(C3(C#N)CC3)cc2)CC1 7.00 to 8.00
CS(=O)(=O)N1CCN(C(=O)c2cnc3ccccc3c2N2CCC(C#N)(c3ccc(I)cc3)CC2)CC1 6.00 to 7.00
CS(=O)(=O)N1CCN(C(=O)c2cnc3cc(I)ccc3c2-c2ccc(C3(C#N)CC3)cc2)CC1 7.00 to 8.00
CS(=O)(=O)N1CCN(C(=O)c2cnc3c(I)cccc3c2-c2ccc(C3(C#N)CC3)cc2)CC1 7.00 to 8.00
CS(=O)(=O)N1CCN(C(=O)c2cnc3ccccc3c2N2CCC(C#N)(c3ccc(F)cc3)CC2)CC1 ≥ 8.00
CS(=O)(=O)N1CCN(C(=O)c2cnc3ccccc3c2-c2ccc(C3(C#N)CC3)c(F)c2)CC1 ≥ 8.00

Query: Look up and state reported pIC50 for `CS(=O)(=O)N1CCN(C(=O)c2cnc3ccccc3c2-c2ccc(C3(C#N)CC3)c(I)c2)CC1`
Result: 5.00 to 6.00

Query: Respond only with pIC50 recorded for `CS(=O)(=O)N1CCN(C(=O)c2cnc3c([N+](=O)[O-])cc(F)cc3c2-c2ccc(C3(C#N)CC3)cc2)CC1`
Result: 7.00 to 8.00

Query: Specify reported pIC50 for the compound shown: `CS(=O)(=O)N1CCN(C(=O)c2cnc3c([N+](=O)[O-])cc(I)cc3c2-c2ccc(C3(C#N)CC3)cc2)CC1`
Result: 7.00 to 8.00

Query: For the compound `CS(=O)(=O)N1CCN(C(=O)c2cnc3c(F)cccc3c2-c2ccc(C3(C#N)CC3)cc2)CC1` , report pIC50.
Result: 7.00 to 8.00

FYI, the data here is from patent US20260191999A1.
